Every entry's value here was drawn from ChEMBL document CHEMBL4715735.

Below is a list of entries, each paired with its recorded IC50 value.
System: RAW264.7
Test: Inhibition of LPS-induced NO production in mouse RAW264.7 cells incubated for 24 hrs by Griess reagent based assay
Type: functional, cell-based
Details: RAW264.7, 24 h
Hi! Could you send only the number? It should be in nM, unit omitted.

Study these solved cases before continuing.
C=C1C(=O)O[C@H]2C[C@H](C)[C@@H]3[C@@H](OC(C)=O)C[C@H](O)[C@@]3(C)C[C@H]12 : 2800
C=C1C(=O)O[C@@H]2CC(C)=C([C@@H](C)CCCOC(C)=O)[C@@H](OC(=O)C[C@H](C)CC)[C@H]12 : 6600
COc1ccc2c(c1)c(CC(=O)O)c(C)n2C(=O)c1ccc(Cl)cc1 : 11600
C=C1C(=O)O[C@H]2C[C@@H](C)[C@@H]3[C@H](OC(C)=O)C[C@H](O)[C@@]3(C)[C@@H](O)[C@H]12 : 15400
C=C1C(=O)O[C@H]2C[C@@H](C)[C@@H]3CC[C@H](O)[C@@]3(C)C[C@H]12 [PSEUDOGUAIANOLIDE] : 2500
C=C1C(=O)O[C@H]2C[C@@H](C)[C@@H]3[C@@H](OC(C)=O)C[C@H](OC(C)=O)[C@@]3(C)[C@@H](O)[C@H]12 : 2500
C=C1C(=O)O[C@H]2C[C@@H](C)[C@@H]3[C@@H](OC(C)=O)C[C@H](O)[C@]3(C)[C@@H](OC(C)=O)[C@H]12 : 3200

Here's the next entry for you.
Request the reported IC50 associated with C=C1C(=O)O[C@@H]2C[C@H](C)C(CCC(C)=O)=CC[C@H]12
2000
